- ASSAYED TARGET: Human NK1 Receptor (Homo sapiens, UniProt P25103)
- Construct: endogenous in cells; host or cells: Human lymphoma IM9 cells (whole cells)
- Sequence (P25103 whole entry): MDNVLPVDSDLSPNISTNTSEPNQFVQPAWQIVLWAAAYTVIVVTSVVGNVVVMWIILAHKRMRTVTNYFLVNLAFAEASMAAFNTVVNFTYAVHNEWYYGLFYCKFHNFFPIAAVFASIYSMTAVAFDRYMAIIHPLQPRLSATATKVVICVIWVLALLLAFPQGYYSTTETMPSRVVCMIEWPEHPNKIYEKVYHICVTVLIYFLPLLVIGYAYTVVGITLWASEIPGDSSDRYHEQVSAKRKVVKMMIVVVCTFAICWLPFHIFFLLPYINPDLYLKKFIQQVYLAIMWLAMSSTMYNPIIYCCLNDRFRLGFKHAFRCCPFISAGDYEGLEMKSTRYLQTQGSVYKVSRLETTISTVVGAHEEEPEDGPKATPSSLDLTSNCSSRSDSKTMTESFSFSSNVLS
- ASSAY INFO: In Vitro Human NK1 Receptor Binding Assay ([125I]Bolton-Hunter substance P displacement, IM9 cells)
- TEST PARAMETERS: Human lymphoma IM9 cells, [125I]Bolton-Hunter substance P; Table 3, array-synthesis products; read-out: IC50 (nM) hNK1
Readings of IC50 for the listed molecules
Please state the figure in nM; there is no need to write the unit.

Examples with answers:
# MOLECULE, ASSAY METRIC, QUANTITATIVE READOUT
rows = [
    ("CC(NC(=O)C(Cc1c[nH]c2ccccc12)NCc1cc2ccccc2o1)c1ccn(C)c1 (centres unmarked)", "IC50", 21),
    ("O=C(NCc1ccc(F)c(F)c1)C(Cc1c[nH]c2ccccc12)NCc1cc2ccccc2o1 (centres unmarked)", "IC50", 10),
]

Continue with the molecule presented below.
Enquiry: Data request, read-out IC50, for CC(CNC(=O)C(Cc1c[nH]c2ccccc12)NCc1cc2ccccc2o1)c1ccccc1 (centres unmarked)
Return: 2000
